Overview of recorded IC50 for various molecules
- experimentalSystem: CDK2/CycE (Homo sapiens, UniProt P24941)
- Construct: purchased ProQinase GmbH (Freiburg, Germany); host or cells: insect cells (Sf9)
- protocolDescription: CDK2/CycE kinase assay (TR-FRET, 2 mM ATP)
- Type: biochemical
- recordedConditions: 2 mM ATP (high ATP); median; read-out: CDK2/CyclinE, 2 mM ATP (high ATP), IC50 (median)

{"molecule": "NC12CC1CN(c1nc(NCc3nc4ccccc4[nH]3)n3ncc(Br)c3n1)C2 (centres unmarked)", "readoutQualifier": "=", "IC50 [nM]": 3100}
{"molecule": "Cc1ccc(-c2nnc(CNc3nc(N4CCOCC4)nc4c(Br)cnn34)[nH]2)cc1F", "readoutQualifier": "=", "IC50 [nM]": 2030}
{"molecule": "Clc1cc2nc(CNc3nc(N4CCOCC4)nc4c(-c5cscn5)cnn34)[nH]c2cc1Cl", "readoutQualifier": ">", "IC50 [nM]": 20000}
{"molecule": "CN(C)CCOc1nc(NCc2nc3ccccc3[nH]2)n2ncc(Br)c2n1", "readoutQualifier": ">", "IC50 [nM]": 20000}
{"molecule": "Clc1cccc(-c2nnc(CNc3nc(N4CCOCC4)nc4c(Br)cnn34)[nH]2)c1", "readoutQualifier": "=", "IC50 [nM]": 1640}
{"molecule": "Brc1cnn2c(NCc3nc4ccccc4[nH]3)nc(N3C[C@H]4CN[C@H]4C3)nc12.O=C(O)C(F)(F)F", "readoutQualifier": ">", "IC50 [nM]": 20000}
{"molecule": "Fc1cc(F)cc(-c2nnc(CNc3nc(N4CCOCC4)nc4c(C(F)(F)F)cnn34)[nH]2)c1", "readoutQualifier": "=", "IC50 [nM]": 1450}
{"molecule": "FC(F)n1cc(-c2cnn3c(NCc4nc5ccccc5[nH]4)nc(N4CCOCC4)nc23)cn1", "readoutQualifier": ">", "IC50 [nM]": 20000}

====

- System: CAL-120, human breast adenocarcinoma cells
- protocolDescription: Proliferation assay CAL-120 (crystal violet, 4 days)
- Assay type: cell-based
- recordedConditions: Homo sapiens, CAL-120, 96 h, CAL-120 cells, median, read-out: Prolif-CAL-120, IC50-[mol/l] (median)
quantityName: IC50 (nM)

{"compound": "CC[C@@H](CO)Nc1nc(NCc2nc3ccccc3[nH]2)n2ncc(Br)c2n1 [Example 367]", "unitText": "nM", "numericReadout": 31.4}
{"compound": "Clc1cnn2c(NCc3nc4ccccc4[nH]3)nc(N3CCOCC3)nc12 [Example 15]", "unitText": "nM", "numericReadout": 29.5}
{"compound": "COc1cccc2nc(CNc3nc(N4CCOCC4)nc4c(-c5ccnnc5)cnn34)[nH]c12.O=C(O)C(F)(F)F [Example 439]", "unitText": "nM", "numericReadout": 36.3}
{"compound": "N[C@H]1CCN(c2nc(NCc3nc4ccccc4[nH]3)n3ncc(Br)c3n2)C1 [Example 245]", "unitText": "nM", "numericReadout": 3.1}

====

- experimentalSystem: CDK2/CycE (Homo sapiens)
- protocolDescription: CDK2/CycE kinase assay (TR-FRET, 2 mM ATP)
- recordedConditions: 2 mM ATP (high ATP); median; read-out: CDK2/CyclinE, 2 mM ATP (high ATP), IC50 (median)
pIC50: −log10 of the molar value.

{"molecule": "Cc1cnn2c(NCc3nc4c(F)c(F)ccc4[nH]3)nc(N3CCOCC3)nc12", "readoutQualifier": "<", "pIC50": 4.70}
{"molecule": "COc1ccccc1-c1nnc(CNc2nc(N3CCN(C)CC3)nc3c(C4CC4(F)F)cnn23)[nH]1 (stereo not shown)", "readoutQualifier": "<", "pIC50": 4.70}
{"molecule": "Fc1ccc2[nH]c(CNc3nc(N4C[C@@H]5C[C@H]4CO5)nc4c(C5CC5)cnn34)nc2c1F", "readoutQualifier": "<", "pIC50": 4.70}
{"molecule": "N[C@@H]1CCN(c2nc(NCc3nc4ccccc4[nH]3)n3ncc(Br)c3n2)C1", "readoutQualifier": "=", "pIC50": 4.89}
{"molecule": "FC(F)(F)Cc1cnn2c(NCc3nc4cc(Cl)ccc4[nH]3)nc(N3CCOCC3)nc12", "readoutQualifier": "<", "pIC50": 4.70}
{"molecule": "CN1CCN(c2nc(NCc3nc4c(F)c(F)ccc4[nH]3)n3ncc(Cl)c3n2)CC1", "readoutQualifier": "<", "pIC50": 4.70}
{"molecule": "Fc1ccc2[nH]c(CNc3nc(N4C[C@@H]5CCCN[C@@H]5C4)nc4c(C5CC5)cnn34)nc2c1F", "readoutQualifier": "<", "pIC50": 4.70}
{"molecule": "OC[C@@H]1CCCCN1c1nc(NCc2nc3ccccc3[nH]2)n2ncc(Br)c2n1", "readoutQualifier": "=", "pIC50": 5.98}
{"molecule": "OC1(C(F)(F)F)CCN(c2nc(NCc3nc4ccccc4[nH]3)n3ncc(Br)c3n2)C1 (stereo not shown)", "readoutQualifier": "=", "pIC50": 5.33}
{"molecule": "Fc1ccc2[nH]c(CNc3nc(N4CCN5CCC4CC5)nc4c(C(F)(F)F)cnn34)nc2c1F", "readoutQualifier": "<", "pIC50": 4.70}
{"molecule": "c1ccc2[nH]c(CNc3nc(N4C[C@@H]5CCCN[C@@H]5C4)nc4c(C5CC5)cnn34)nc2c1", "readoutQualifier": "<", "pIC50": 4.70}
{"molecule": "CN1CCN(c2nc(NCc3nc4c(F)cccc4[nH]3)n3ncc(Cl)c3n2)CC1.O=CO", "readoutQualifier": "=", "pIC50": 5.03}
{"molecule": "Fc1c(Cl)ccc2[nH]c(CNc3nc(N4CC5CCC(C4)N5)nc4c(Br)cnn34)nc12", "readoutQualifier": "=", "pIC50": 5.03}
{"molecule": "O=C(O)C(F)(F)F.c1ccc2[nH]c(CNc3nc(N4CCOCC4)nc4c(-c5cncs5)cnn34)nc2c1", "readoutQualifier": "<", "pIC50": 4.70}
{"molecule": "CN(CC(C)(C)O)c1nc(NCc2nc3c(F)c(Cl)ccc3[nH]2)n2ncc(Br)c2n1", "readoutQualifier": "=", "pIC50": 5.51}
{"molecule": "Brc1cnn2c(NCc3nnc(-c4ccccc4)[nH]3)nc(N3C[C@H]4C[C@@H]3CO4)nc12", "readoutQualifier": "=", "pIC50": 5.47}
